experimental_target: Lysine-specific histone demethylase 1A (Homo sapiens)
Listing: pKi of selected molecules
Note on units: pKi is unitless, being -log10 of a concentration expressed in mol/L.

Examples with their reported pKi follow.
smiles_notation	pKi
NNCCc1ccc(NC(=O)c2ccccc2)cc1	6.55
NNCCCCc1ccccc1	4.66
COc1ccc(CCCC(=O)Nc2ccc(CCNN)cc2)cc1	6.68
NNCCCc1ccc(OCc2ccccc2)cc1	6.05
CN(C(=O)CCCc1ccccc1)c1ccc(CCNN)cc1	5.70
NNCCCOc1ccccc1	4.92

Would you kindly look at the next entry?
Recorded pKi for `NNCCc1ccc(NC(=O)/C=C/c2ccccc2)cc1` with Lysine-specific histone demethylase 1A (Homo sapiens), please?
7.00
